Tested on: NCI-H522 lung
PROTOCOL TEXT: NCI-60 one-dose screen, 48 h (100 = growth as untreated, 0 = no growth, -100 = all killed)
CONDITION SUMMARY: 10 µM
This is part of a sample that, as a whole, favours compounds with a hit. Of some 83,000 tested, about 20% had one in any assay.
QUANTITY MEASURED: growth (%)
Dear colleague, please return just the value in %, with no unit written.

[Q] API: value(readout=growth, system=NCI-H522 lung) for record `C#CCCCN(CCNc1ccnc2cc(Cl)ccc12)C(=O)CCC(=O)O[C@@H]1O[C@@H]2OC3(C)CC[C@H]4[C@H](C)CC[C@@H]([C@H]1C)[C@@]24OO3`
[A] 8.38

[Q] Try this compound next: `COc1cc(OC)c(S(=O)(=O)N(CCCl)CCCl)cc1C(=O)/C=C/c1cc(OC)c(OC)c(OC)c1`
[A] -69.1

[Q] Try this compound next: CC12OOC(C)(OO1)C2CCC(=O)OCCNc1ccnc2cc(Cl)ccc12 (configuration not stated)
[A] -79.2

[Q] Try this compound next: `CC[C@]12C=CCN3CC[C@@]4(c5ccc(OC)cc5N(C)[C@H]4[C@@](O)(C(=O)OC)[C@@H]1OC(=O)CCC[P+](C1CCCCC1)(C1CCCCC1)C1CCCCC1)[C@@H]32`
[A] -82.2

* * *

Tested on: OVCAR-4 ovarian
PROTOCOL TEXT: NCI-60 one-dose screen, 48 h
CONDITION SUMMARY: 10 µM
This is part of a sample that, as a whole, favours compounds with a hit. Of some 83,000 tested, about 20% had one in any assay. The source made the active and inactive calls. How the source made its calls: active means growth percent below 10; inactive means the rest.
# valid calls are active, inactive; nothing else

Worked cases, answers included:
>  <SMILES DATA>
O=C(NC([Se])=NC1CCCCC1)c1ccc2c(c1)OCO2

>  <GROUP>
inactive

$$$$
>  <SMILES DATA>
COc1cc2cc(C(=O)N3C[C@@H](CCl)c4c3cc(OC(=O)N3CCN(C)[C@@H]5CSSC[C@@H]53)c3ccccc43)[nH]c2c(OC)c1OC

>  <GROUP>
active

$$$$

We now examine a further molecule.
[Q] Check the results log: what was the call for `O=C(/C=C/c1ccco1)c1nc2ccccc2n1Cc1ccc(Br)cc1` ?
[A] inactive

* * *

compounds and their reported growth
System: K-562 leukemia
PROTOCOL TEXT: NCI-60 one-dose screen, 48 h (100 = growth as untreated, 0 = no growth, -100 = all killed)
CONDITION SUMMARY: 10 µM
Procedure: Cells are grown in 96 well plates and exposed to the test compound for 48 hours. Compounds are tested at a single concentration, which is 10^-5 M for most compounds. The reported endpoint is percent growth (GI% or GIPRCNT), where numbers from 0 - 100% represent growth inhibition, and numbers from -100% - 0 represent cell death. For example, a value of 40 represents 60% growth inhibition. A value of 0 means no net growth occurred over the course of the experiment. […]
The panel holds about 83,000 compounds, 20% with a hit somewhere; the sample as a whole holds those more often. Active and inactive are the calls of the source. How the source made its calls: active means growth percent below 10; inactive means the rest.

>  <COMPOUND>
O=C(/C=C/c1ccco1)c1nc2ccccc2n1Cc1ccc(Br)cc1

>  <ASSAY SYSTEM>
K-562 leukemia

>  <QUANTITY MEASURED>
growth

>  <DATA VALUE>
7% (active)

$$$$
>  <COMPOUND>
CC(C)C[C@H](NC(=O)CNC(=O)C[C@H]1O[C@@H]2OC3(C)CC[C@H]4[C@H](C)CC[C@@H]([C@H]1C)[C@@]24OO3)B(O)O

>  <ASSAY SYSTEM>
K-562 leukemia

>  <QUANTITY MEASURED>
growth

>  <DATA VALUE>
4% (active)

$$$$
>  <COMPOUND>
COc1cc2cc(C(=O)N3C[C@@H](CCl)c4c3cc(OC(=O)N3CCN(C(=O)CCC(=O)N5CCN(C)CC5)[C@@H]5CSSC[C@@H]53)c3ccccc43)[nH]c2c(OC)c1OC

>  <ASSAY SYSTEM>
K-562 leukemia

>  <QUANTITY MEASURED>
growth

>  <DATA VALUE>
-17.8% (active)

$$$$
>  <COMPOUND>
CC[C@]12C=CCN3CC[C@@]4(c5ccc(OC)cc5N(C)[C@H]4[C@@](O)(C(=O)OC)[C@@H]1OC(=O)CCCC[P+](c1ccc(C)cc1)(c1ccc(C)cc1)c1ccc(C)cc1)[C@@H]32

>  <ASSAY SYSTEM>
K-562 leukemia

>  <QUANTITY MEASURED>
growth

>  <DATA VALUE>
0.797% (active)

$$$$
>  <COMPOUND>
O=C(/C=C/c1ccco1)c1nc2ccccc2n1Cc1ccc(F)cc1

>  <ASSAY SYSTEM>
K-562 leukemia

>  <QUANTITY MEASURED>
growth

>  <DATA VALUE>
20.7% (inactive)

$$$$
>  <COMPOUND>
O=C(/C=C/c1ccc(Br)cc1)c1nc2ccccc2n1Cc1ccc(Br)cc1

>  <ASSAY SYSTEM>
K-562 leukemia

>  <QUANTITY MEASURED>
growth

>  <DATA VALUE>
0.898% (active)

$$$$

[Q] API: value(readout=growth, system=K-562 leukemia) for record `CC(=O)Oc1ccccc1C(=O)[Se]C(=NC(C)C)NC(C)C`
[A] -29.6% (active)

[Q] Try this compound next: O=C([Se]C1C=CCCC1)c1ccc(C(=O)[Se]C2C=CCCC2)s1 (configuration not stated)
[A] 6.15% (active)

[Q] Try this compound next: `O=C(/C=C/c1ccccc1)c1nc2ccccc2n1Cc1ccc(Br)cc1`
[A] -17.2% (active)

* * *

molecules and their reported growth
System: BT-549 breast
PROTOCOL TEXT: NCI-60 one-dose screen, 48 h (100 = growth as untreated, 0 = no growth, -100 = all killed)
CONDITION SUMMARY: 10 µM
This is part of a sample that, as a whole, favours compounds with a hit. Of some 83,000 tested, about 20% had one in any assay.
Dear colleague, please return just the value in %, with no unit written.

[Q] API: value(readout=growth, system=BT-549 breast) for record `C[C@H]1[C@H](OC(=O)CCC(=O)N(CCCc2cn(-c3ccc(CN4CCOCC4)cc3)nn2)CCNc2ccnc3cc(Cl)ccc23)O[C@@H]2OC3(C)CC[C@H]4[C@H](C)CC[C@@H]1[C@@]24OO3`
[A] 5.43

[Q] Try this molecule next: `CC[C@]12C=CCN3CC[C@@]4(c5ccc(OC)cc5N(C)[C@H]4[C@@](O)(C(=O)OC)[C@@H]1OC(=O)CCCC[P+](c1ccc(OC)cc1)(c1ccc(OC)cc1)c1ccc(OC)cc1)[C@@H]32`
[A] -96.7

[Q] Try this molecule next: `COC(=O)c1ccc(-n2cc(CCCN(CCNc3ccnc4cc(Cl)ccc34)C(=O)CCC(=O)O[C@@H]3O[C@@H]4OC5(C)CC[C@H]6[C@H](C)CC[C@@H]([C@H]3C)[C@@]46OO5)nn2)cc1`
[A] 43.2

[Q] Try this molecule next: `COc1ccc(/C=C/C(=O)c2nc3ccccc3n2Cc2ccc(Br)cc2)cc1`
[A] 70.3

[Q] Try this molecule next: `CC[C@]12C=CCN3CC[C@@]4(c5ccc(OC)cc5N(C)[C@H]4[C@@](O)(C(=O)OC)[C@@H]1OC(=O)CCCC[P+](C1CCCCC1)(C1CCCCC1)C1CCCCC1)[C@@H]32`
[A] -97.4

[Q] Try this molecule next: CC12OOC(C)(OO1)C2CCC(=O)NCCCNc1ccnc2cc(Cl)ccc12 (stereo not given)
[A] 121

[Q] Try this molecule next: `COCCOCCOCCOc1ccc(-n2cc(-c3ccc(O[C@H]4O[C@@H]5OC6(C)CC[C@H]7[C@H](C)CC[C@@H]([C@H]4C)[C@@]57OO6)cc3)nn2)cc1`
[A] 3.83

[Q] Try this molecule next: `COc1ccc(OC)c(/C=C/C(=O)c2nc3ccccc3n2Cc2ccc(F)cc2)c1`
[A] -58.2

[Q] Try this molecule next: `COc1cc(OC)c(S(=O)(=O)N(CCCl)CCCl)cc1C(=O)/C=C/c1ccc(C)cc1`
[A] 93.8

[Q] Try this molecule next: `CCOP(=O)(CC(F)(F)C(F)(F)F)OCC`
[A] 49

[Q] Try this molecule next: `COc1cc2cc(C(=O)N3C[C@@H](CCl)c4c3cc(OC(=O)N3CCN(C)[C@@H]5CSSC[C@H]53)c3ccccc43)[nH]c2c(OC)c1OC`
[A] -96.4

[Q] Try this molecule next: `O=C(/C=C/c1ccc(Br)cc1)c1nc2ccccc2n1Cc1ccc(Br)cc1`
[A] -66.2

* * *

Test system: SK-MEL-2 melanoma
PROTOCOL TEXT: NCI-60 one-dose screen, 48 h (100 = growth as untreated, 0 = no growth, -100 = all killed)
CONDITION SUMMARY: 10 µM
This is part of a sample that, as a whole, favours compounds with a hit. Of some 83,000 tested, about 20% had one in any assay.
compounds and their reported growth
Dear colleague, please return just the value in %, with no unit written.

[Q] Need growth of `O=C(/C=C/c1ccc(Cl)cc1Cl)c1nc2ccccc2n1Cc1ccc(Br)cc1` , thanks.
[A] 97.2

[Q] Try this compound next: `C=CC[Se]C(=O)c1cncc(C(=O)[Se]CC=C)c1`
[A] -54.1

[Q] Try this compound next: `CC(C)N=C([Se])NC(=O)c1ccccc1`
[A] -40

[Q] Try this compound next: `O=C(/C=C/c1cccc(Br)c1)c1nc2ccccc2n1Cc1ccc(Br)cc1`
[A] -42.3

[Q] Try this compound next: `CC[C@]12C=CCN3CC[C@@]4(c5ccc(OC)cc5N(C)[C@H]4[C@@](O)(C(=O)OC)[C@@H]1OC(=O)CCC[P+](c1ccc(C)cc1)(c1ccc(C)cc1)c1ccc(C)cc1)[C@@H]32`
[A] -85.4

The values you see were collected from PubChem BioAssay (NCI).
